TGT: Fn14-TWEAK binding (Homo sapiens, UniProt Q9NP84)
Construct: the human Fc fragment-tagged Fn14 extracellular domain (R&D Systems) was captured; purchased R&D Systems (Fn14-Fc); Peprotech (recombinant TWEAK)
Sequence (Q9NP84 28-80 limits assumed): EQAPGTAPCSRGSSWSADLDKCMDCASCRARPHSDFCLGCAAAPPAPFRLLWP
RUN_DESCRIPTION: Double sandwich ELISA small molecule screening of TWEAK binding to captured Fn14-Fc
EXPERIMENTAL_SETUP: Table 3, first round of screening, 25 μM, replicate 1; read-out: % Reduction in TWEAK Binding, Data 1
REPORTED_ENDPOINT: inhibition at 25 µM (%)

Solved entries (count: 5):
O=C(NCc1ccc(F)cc1)C(=O)NCc1n[nH]c(=O)c2ccccc12 = 12.6
CC(C)NC(=O)C(=O)NCc1n[nH]c(=O)c2ccccc12 = 12.8
COC(=O)[C@H]1Cc2c([nH]c3ccccc23)CN1 = 9.77
O=C(O)C[C@@H]1NC(=O)c2ccccc2NC1=O = 14.3
Cc1cc(C2CCCN2C(=O)c2cc(-c3ccc4c(c3)OCO4)on2)on1 (stereo not shown) = 23.1

(P) O=C(CSc1nc2c(cnn2-c2ccccc2)c(=O)[nH]1)NCc1ccc2c(c1)OCO2
(Q) Cc1ccc(-c2csc3c(=O)[nH]c(N4CCCC(C(N)=O)C4)nc23)cc1 (stereo not shown)
Task: Which shows the larger inhibition at 25 µM value: P or Q ? Which one? Tell me its label.
Result: P
